Hello, the source for this data is patent USRE48461E1, in case you need it.

Below is a list of entries, each paired with its recorded percent inhibition of AR value.
tested on: AR mRNA; assay: Dose-dependent antisense inhibition of human AR in HuVEC cells (electroporation, qRT-PCR RTS3559, IC50); type: cell-based; settings: 55.6 nM; HuVEC, ~16 h; Table 4
Oligonucleotides are written 5' to 3', each unit as a sugar letter and its base; * is a phosphorothioate linkage, no mark a phosphodiester; rarer units and linkages stand in square brackets, end groups in braces. Plain capitals give the bases only. k = constrained ethyl (cEt); [5mC] = 5-methylcytosine; d = 2'-deoxy (DNA)

{"SUBSTANCE": "549434 (k[5mC]*kT*kA*dA*dA*d[5mC]*dT*dT*d[5mC]*d[5mC]*d[5mC]*dG*dT*kG*kG*k[5mC]) [compound 549434]", "percent inhibition of AR, %": 38}
{"SUBSTANCE": "549414 (kG*kT*kT*d[5mC]*dA*dT*dT*d[5mC]*dG*dA*dA*dG*dT*kT*k[5mC]*kA) [compound 549414]", "percent inhibition of AR, %": 21}
{"SUBSTANCE": "549338 (kG*kG*k[5mC]*dT*dG*dT*dG*dA*dT*dG*dA*dT*dG*k[5mC]*kG*kG; antisense) [compound 549338]", "percent inhibition of AR, %": 32}
{"SUBSTANCE": "549459 (kA*kT*kG*dG*dT*dT*dG*dA*dT*dT*dT*dA*dA*kT*kG*kG) [compound 549459]", "percent inhibition of AR, %": 61}
{"SUBSTANCE": "549457 (kT*kT*kG*dA*dT*dT*dT*dA*dA*dT*dG*dG*dT*kT*kG*k[5mC]) [compound 549457]", "percent inhibition of AR, %": 70}
{"SUBSTANCE": "549332 (kG*k[5mC]*kG*d[5mC]*dT*d[5mC]*dT*dG*dA*d[5mC]*dA*dG*d[5mC]*k[5mC]*kT*k[5mC]; antisense) [compound 549332]", "percent inhibition of AR, %": 35}

====

Test system: AR mRNA
Assay: Dose-dependent antisense inhibition of human AR in HuVEC cells (electroporation, qRT-PCR RTS3559, IC50)
Type: cell-based
Conditions: Table 32; 46.9 nM, HuVEC, electroporation, approximately 16 hours
Experimental: After a treatment period of approximately 16 hours, RNA was isolated from the cells and AR mRNA levels were measured by quantitative real-time PCR. Human AR primer probe set RTS3559 was used to measure mRNA levels. AR mRNA levels were adjusted according to total RNA content, as measured by RIBOGREEN®. […] After a treatment period of approximately 16 hours, RNA was isolated from the cells and AR mRNA levels were measured by quantitative real-time PCR. […]
Oligonucleotides are written 5' to 3', each unit as a sugar letter and its base; * is a phosphorothioate linkage, no mark a phosphodiester; rarer units and linkages stand in square brackets, end groups in braces. Plain capitals give the bases only. k = constrained ethyl (cEt); [5mC] = 5-methylcytosine; d = 2'-deoxy (DNA)
Binning scheme for percent inhibition of AR, 46.9 nM: group 1 (below 20%), group 2 (20% to below 30%), group 3 (30% or more)

{"SUBSTANCE": "583850 (kG*kG*kA*d[5mC]*dG*d[5mC]*dA*d[5mC]*dA*dG*d[5mC]*dG*dG*kG*kT*kG; antisense) [compound 583850]", "LABEL_VALUE": "group 1"}
{"SUBSTANCE": "583880 (kT*kT*kT*dG*dG*dT*dG*dT*dA*dA*d[5mC]*d[5mC]*dT*k[5mC]*k[5mC]*k[5mC]; antisense) [compound 583880]", "LABEL_VALUE": "group 1"}
{"SUBSTANCE": "583855 (k[5mC]*k[5mC]*kT*dT*dT*dG*d[5mC]*dA*dT*dT*d[5mC]*dG*dG*k[5mC]*k[5mC]*kA; antisense) [compound 583855]", "LABEL_VALUE": "group 2"}
{"SUBSTANCE": "583871 (kA*kT*kA*d[5mC]*dT*d[5mC]*dA*dG*d[5mC]*dA*dG*dT*dA*kT*k[5mC]*kT; antisense) [compound 583871]", "LABEL_VALUE": "group 2"}
{"SUBSTANCE": "583836 (k[5mC]*k[5mC]*kG*dA*dA*dG*d[5mC]*dT*dG*dT*dT*d[5mC]*d[5mC]*k[5mC]*k[5mC]*kT; antisense) [compound 583836]", "LABEL_VALUE": "group 1"}
{"SUBSTANCE": "583865 (kT*kT*k[5mC]*dA*dG*dT*dG*d[5mC]*dT*d[5mC]*dT*dT*dG*k[5mC]*k[5mC]*kT; antisense) [compound 583865]", "LABEL_VALUE": "group 3"}
{"SUBSTANCE": "583802 (antisense k[5mC]*kT*k[5mC]*dG*d[5mC]*dT*d[5mC]*dT*d[5mC]*d[5mC]*d[5mC]*dG*d[5mC]*kT*kG*k[5mC]) [compound 583802]", "LABEL_VALUE": "group 1"}
{"SUBSTANCE": "583797 (antisense kT*k[5mC]*kG*dG*dA*dT*dA*d[5mC]*dT*dG*d[5mC]*dT*dT*k[5mC]*k[5mC]*kT) [compound 583797]", "LABEL_VALUE": "group 2"}
{"SUBSTANCE": "583834 (kA*kG*k[5mC]*dT*dG*dT*dT*d[5mC]*d[5mC]*d[5mC]*d[5mC]*dT*dG*kG*kA*k[5mC]; antisense) [compound 583834]", "LABEL_VALUE": "group 3"}
{"SUBSTANCE": "583787 (antisense kG*kG*kT*dG*d[5mC]*dT*dG*dG*d[5mC]*d[5mC]*dT*d[5mC]*dG*k[5mC]*kT*k[5mC]) [compound 583787]", "LABEL_VALUE": "group 1"}
{"SUBSTANCE": "583749 (antisense kA*kG*kG*dT*dG*d[5mC]*dT*dG*d[5mC]*dG*d[5mC]*dT*d[5mC]*kG*k[5mC]*kG) [compound 583749]", "LABEL_VALUE": "group 3"}
{"SUBSTANCE": "583759 (antisense kG*k[5mC]*kT*dG*dT*dT*d[5mC]*d[5mC]*dT*d[5mC]*dA*dT*d[5mC]*k[5mC]*kA*kG) [compound 583759]", "LABEL_VALUE": "group 1"}
{"SUBSTANCE": "583881 (k[5mC]*k[5mC]*kT*dT*dT*dG*dG*dT*dG*dT*dA*dA*d[5mC]*k[5mC]*kT*k[5mC]; antisense) [compound 583881]", "LABEL_VALUE": "group 2"}

====

conditions: cynomolgus monkey, in vivo, sc, 40 mg/kg
RECORDED_METRIC: Body Wt (kg)

{"SUBSTANCE": "TGATTTAATGGTTGCA [ISIS 569221] (cEt/MOE gapmer chemistry, further chemistry not given here)", "NUMBER": 2.5}
{"SUBSTANCE": "GATTTAATGGTTGCAA (cEt gapmer chemistry, further chemistry not given here) [ISIS 586124]", "NUMBER": 2.5}
{"SUBSTANCE": "TTGATTTAATGGTTGC [ISIS 560131] (MOE and (S)-cEt gapmer chemistry, further chemistry not given here)", "NUMBER": 2.4}
{"SUBSTANCE": "ISIS 584163: antisense compound targeted to human AR (GAACATTATTAGGCTA; 3-10-3 (S)-cEt gapmer, further chemistry not given here)", "NUMBER": 2.5}
{"SUBSTANCE": "TTGATTTAATGGTTGC [ISIS 579671] (cEt/MOE gapmer chemistry, further chemistry not given here)", "NUMBER": 2.4}
{"SUBSTANCE": "ISIS 584269: antisense compound targeted to human AR (CCTTATGGATGCTGCT; 3-10-3 (S)-cEt gapmer, further chemistry not given here)", "NUMBER": 2.5}

====

test system: AR mRNA; test: Dose-dependent antisense inhibition of human AR in HuVEC cells (electroporation, qRT-PCR RTS3559, IC50); format: cell-based; details: Table 31; HuVEC, electroporation, approximately 16 hours
Oligonucleotides are written 5' to 3', each unit as a sugar letter and its base; * is a phosphorothioate linkage, no mark a phosphodiester; rarer units and linkages stand in square brackets, end groups in braces. Plain capitals give the bases only. k = constrained ethyl (cEt); [5mC] = 5-methylcytosine; d = 2'-deoxy (DNA)

{"SUBSTANCE": "583731 (antisense k[5mC]*kG*k[5mC]*dG*d[5mC]*dA*d[5mC]*dG*d[5mC]*dT*d[5mC]*dT*dG*kG*kA*kA) [compound 583731]", "IC50 (nM)": 1310}
{"SUBSTANCE": "583818 (antisense kT*kG*kG*dT*d[5mC]*dG*dA*dA*dG*dT*dG*d[5mC]*d[5mC]*k[5mC]*k[5mC]*k[5mC]) [compound 583818]", "IC50 (nM)": 310}
{"SUBSTANCE": "549372 (kA*kA*kG*dT*dT*dG*dT*dA*dG*dT*dA*dG*dT*k[5mC]*kG*k[5mC]) [compound 549372]", "IC50 (nM)": 360}
{"SUBSTANCE": "583700 (antisense kG*kA*kA*dG*dA*dG*dT*dT*d[5mC]*dA*dA*d[5mC]*dA*kG*kG*k[5mC]) [compound 583700]", "IC50 (nM)": 550}
{"SUBSTANCE": "583790 (antisense kG*kT*kT*dG*d[5mC]*dA*dT*dG*dG*dT*dG*d[5mC]*dT*kG*kG*k[5mC]) [compound 583790]", "IC50 (nM)": 320}
{"SUBSTANCE": "583714 (antisense kT*k[5mC]*k[5mC]*dA*dT*d[5mC]*d[5mC]*dT*dT*dG*dA*dG*d[5mC]*kT*kT*kG) [compound 583714]", "IC50 (nM)": 400}
